# Target desc: T1, BMPRII receptor-Fc fusion (UniProt Q13873 27-151, limits assumed)
# T1 construct: BMP receptor-Fc fusion used at 5 ug/mL
# T1 sequence (looked up): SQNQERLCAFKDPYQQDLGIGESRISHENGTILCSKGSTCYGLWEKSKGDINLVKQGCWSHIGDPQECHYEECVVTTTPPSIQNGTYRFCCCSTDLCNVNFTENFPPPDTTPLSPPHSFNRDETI
# Experiment notes: ELISA-like plate assay, captured BMP-7 from conditioned media, receptor-Fc detection
BMPRII binding (relative to wild type = 1.0): recorded values

Some solved entries appear below for comparison.
### Prompt Annotate the binder BMP-7 variant R129N (ligand, In conditioned media; numbering on mature BMP-7) STGGKQRSQNRSKTPKNQEALRMASVAENSSSDQRQACKKHELYVSFRDLGWQDWIIAPEGYAAYYCEGECAFPLNSYMNATNHAIVQTLVHFINPETVPKPCCAPTQLNAISVLYFDDSSNVILKKYNNMVVRACGCH with its measured BMPRII binding (relative to wild type = 1.0).
### Response 1.4 relative to wild type

### Prompt Report BMPRII binding (relative to wild type = 1.0), nothing else, for this binder: BMP-7 variant F93H (ligand, In conditioned media; numbering on mature BMP-7) STGGKQRSQNRSKTPKNQEALRMASVAENSSSDQRQACKKHELYVSFRDLGWQDWIIAPEGYAAYYCEGECAFPLNSYMNATNHAIVQTLVHHINPETVPKPCCAPTQLNAISVLYFDDSSNVILKKYRNMVVRACGCH
### Response 1.2 relative to wild type

### Prompt Supply reported BMPRII binding (relative to wild type = 1.0) belonging to this binder: BMP-7 variant N76T (ligand, In conditioned media; numbering on mature BMP-7) STGGKQRSQNRSKTPKNQEALRMASVAENSSSDQRQACKKHELYVSFRDLGWQDWIIAPEGYAAYYCEGECAFPLTSYMNATNHAIVQTLVHFINPETVPKPCCAPTQLNAISVLYFDDSSNVILKKYRNMVVRACGCH
### Response 0.97 relative to wild type

### Prompt Please report the measured BMPRII binding (relative to wild type = 1.0) for BMP-7 variant R129K (ligand, In conditioned media; numbering on mature BMP-7) STGGKQRSQNRSKTPKNQEALRMASVAENSSSDQRQACKKHELYVSFRDLGWQDWIIAPEGYAAYYCEGECAFPLNSYMNATNHAIVQTLVHFINPETVPKPCCAPTQLNAISVLYFDDSSNVILKKYKNMVVRACGCH
### Response 0.78 relative to wild type

### Prompt State, in one line, measured BMPRII binding (relative to wild type = 1.0) of BMP-7 variant L21G (ligand, In conditioned media; numbering on mature BMP-7) STGGKQRSQNRSKTPKNQEAGRMASVAENSSSDQRQACKKHELYVSFRDLGWQDWIIAPEGYAAYYCEGECAFPLNSYMNATNHAIVQTLVHFINPETVPKPCCAPTQLNAISVLYFDDSSNVILKKYRNMVVRACGCH
### Response 2.3 relative to wild type

New cases:
### Prompt Give the measured BMPRII binding (relative to wild type = 1.0) for BMP-7 variant L90E (ligand, In conditioned media; numbering on mature BMP-7) STGGKQRSQNRSKTPKNQEALRMASVAENSSSDQRQACKKHELYVSFRDLGWQDWIIAPEGYAAYYCEGECAFPLNSYMNATNHAIVQTEVHFINPETVPKPCCAPTQLNAISVLYFDDSSNVILKKYRNMVVRACGCH
### Response 0.18 relative to wild type

### Prompt Supply measured BMPRII binding (relative to wild type = 1.0) of BMP-7 variant Q53S (ligand, In conditioned media; numbering on mature BMP-7) STGGKQRSQNRSKTPKNQEALRMASVAENSSSDQRQACKKHELYVSFRDLGWSDWIIAPEGYAAYYCEGECAFPLNSYMNATNHAIVQTLVHFINPETVPKPCCAPTQLNAISVLYFDDSSNVILKKYRNMVVRACGCH in your reply.
### Response 1.26 relative to wild type

### Prompt Quick one: give measured BMPRII binding (relative to wild type = 1.0) for BMP-7 variant L21N (ligand, In conditioned media; numbering on mature BMP-7) STGGKQRSQNRSKTPKNQEANRMASVAENSSSDQRQACKKHELYVSFRDLGWQDWIIAPEGYAAYYCEGECAFPLNSYMNATNHAIVQTLVHFINPETVPKPCCAPTQLNAISVLYFDDSSNVILKKYRNMVVRACGCH
### Response 1.73 relative to wild type

### Prompt For the binder BMP-7 variant V26G (ligand, In conditioned media; numbering on mature BMP-7) STGGKQRSQNRSKTPKNQEALRMASGAENSSSDQRQACKKHELYVSFRDLGWQDWIIAPEGYAAYYCEGECAFPLNSYMNATNHAIVQTLVHFINPETVPKPCCAPTQLNAISVLYFDDSSNVILKKYRNMVVRACGCH , give its reported BMPRII binding (relative to wild type = 1.0).
### Response 1 relative to wild type

### Prompt Look up and report measured BMPRII binding (relative to wild type = 1.0) for this entry: BMP-7 variant R48H (ligand, In conditioned media; numbering on mature BMP-7) STGGKQRSQNRSKTPKNQEALRMASVAENSSSDQRQACKKHELYVSFHDLGWQDWIIAPEGYAAYYCEGECAFPLNSYMNATNHAIVQTLVHFINPETVPKPCCAPTQLNAISVLYFDDSSNVILKKYRNMVVRACGCH
### Response 0.58 relative to wild type

### Prompt Please list BMPRII binding (relative to wild type = 1.0) recorded for the binder BMP-7 variant V26N (ligand, In conditioned media; numbering on mature BMP-7) STGGKQRSQNRSKTPKNQEALRMASNAENSSSDQRQACKKHELYVSFRDLGWQDWIIAPEGYAAYYCEGECAFPLNSYMNATNHAIVQTLVHFINPETVPKPCCAPTQLNAISVLYFDDSSNVILKKYRNMVVRACGCH
### Response 0.97 relative to wild type

### Prompt Report BMPRII binding (relative to wild type = 1.0) for BMP-7 variant L90H (ligand, In conditioned media; numbering on mature BMP-7) STGGKQRSQNRSKTPKNQEALRMASVAENSSSDQRQACKKHELYVSFRDLGWQDWIIAPEGYAAYYCEGECAFPLNSYMNATNHAIVQTHVHFINPETVPKPCCAPTQLNAISVLYFDDSSNVILKKYRNMVVRACGCH
### Response 0.2 relative to wild type
